A collection of compounds and their measured IC50
TEST TARGET: human LSD1(171-852) (Homo sapiens, UniProt O60341)
Construct: to give hLSD1(171-852) purified product; made in house; host or cells: Escherichia coli C43(DE3) pLysS
ASSAY DETAILS: Measurement of LSD1 inhibitory activity (time-resolved fluorescence, biotin-histone H3 mono methylated K4 peptide)
Assay type: biochemical
DETAILS: read-out: LSD1 IC50 value
Counter-ions that a name gives are not always drawn.
RECORDED METRIC: IC50

INSERT INTO measurements (compound, recorded_metric, endpoint_value) VALUES
  ('O=C(Nc1ccc([C@@H]2C[C@H]2NCC2CC2)cc1)c1ccc(OCc2ccccc2)cc1 (relative stereo) [Example 71, hydrochloride]', 'IC50', '< 0.1 µM'),
  ('Cc1ccc(C(=O)Nc2ccc([C@@H]3C[C@H]3NCC3CC3)cc2)cc1C (relative stereo) [Example 105, hydrochloride]', 'IC50', '< 0.1 µM'),
  ('O=C(Nc1ccc([C@@H]2C[C@H]2NCC2CC2)cc1)c1cccc(-c2ncccn2)c1 (relative stereo) [Example 139, hydrochloride]', 'IC50', '< 0.1 µM'),
  ('CC(COc1ccccc1)N[C@@H]1C[C@H]1c1ccc(NC(=O)c2ccc(-c3ccccc3)cc2)cc1 (relative stereo) [Example 56]', 'IC50', '0.26 µM'),
  ('O=C(Nc1ccc([C@@H]2C[C@H]2NCC2CC2)cc1)c1ccc(-c2ccccc2Cl)cc1 (relative stereo) [Example 78, hydrochloride]', 'IC50', '< 0.1 µM'),
  ('Cc1cc(C(=O)Nc2ccc([C@@H]3C[C@H]3NCC3CC3)cc2)n(C)n1 (relative stereo) [Example 156, dihydrochloride]', 'IC50', '< 0.1 µM');

====

TEST TARGET: human LSD1(171-852) (Homo sapiens, UniProt O60341)
Construct: to give hLSD1(171-852) purified product; made in house; host or cells: Escherichia coli C43(DE3) pLysS
ASSAY DETAILS: Measurement of LSD1 inhibitory activity (time-resolved fluorescence, biotin-histone H3 mono methylated K4 peptide)
Format: biochemical
DETAILS: read-out: LSD1 IC50 value
Structures can show the parent of a compound that is named as a salt.
IC50 overview
RECORDED METRIC: IC50

INSERT INTO assay_data (compound, recorded_metric, endpoint_value) VALUES
  ('O=C(Nc1ccc([C@@H]2C[C@H]2NCC2CC2)cc1)c1ccc(-c2cccnc2)cc1 (relative stereo) [Example 132]', 'IC50', '< 100 nM'),
  ('O=C(Nc1ccc([C@@H]2C[C@H]2NCCCc2ccccc2)cc1)c1ccccc1 (relative stereo) [Example 14]', 'IC50', '< 100 nM'),
  ('O=C(Nc1ccc([C@@H]2C[C@H]2NCc2ccccc2)cc1)c1ccc(-c2ccccc2)cc1 (relative stereo) [Example 35]', 'IC50', '130 nM'),
  ('CN1CCN(c2cccc(C(=O)Nc3ccc([C@@H]4C[C@H]4NCC4CC4)cc3)c2)CC1 (relative stereo) [Example 131]', 'IC50', '< 100 nM'),
  ('O=C(Nc1ccc([C@@H]2C[C@H]2NCc2cccnc2)cc1)c1ccc(-c2ccccc2)cc1 (relative stereo) [Example 38]', 'IC50', '< 100 nM'),
  ('CCCCCCCCCCCCN[C@@H]1C[C@H]1c1ccc(NC(=O)c2ccccc2)cc1 (relative stereo) [Example 22]', 'IC50', '410 nM'),
  ('O=C(Nc1ccc([C@@H]2C[C@H]2NCC2CC2)cc1)c1cc2ccccc2o1 (relative stereo) [Example 129]', 'IC50', '< 100 nM'),
  ('NS(=O)(=O)c1ccc(C(=O)Nc2ccc([C@@H]3C[C@H]3NCC3CC3)cc2)cc1 (relative stereo) [Example 88]', 'IC50', '< 100 nM'),
  ('O=C(Nc1ccc([C@@H]2C[C@H]2NC2CCN(C3CC3)CC2)cc1)c1cccc(C(F)(F)F)c1 (relative stereo) [Example 111, dihydrochloride]', 'IC50', '< 100 nM'),
  ('Cc1oc(-c2ccccc2)nc1C(=O)Nc1ccc([C@@H]2C[C@H]2NCC2CC2)cc1 (relative stereo) [Example 122]', 'IC50', '< 100 nM'),
  ('O=C(Nc1ccc([C@@H]2C[C@H]2NC2CCN(Cc3ccccc3)CC2)cc1)c1ccccc1 (relative stereo) [Example 25]', 'IC50', '< 100 nM'),
  ('O=C(Nc1ccc([C@@H]2C[C@H]2NCC2CC2)cc1)c1cccc(-n2cnnn2)c1 (relative stereo) [Example 100]', 'IC50', '< 100 nM'),
  ('O=C(Nc1ccc([C@@H]2C[C@H]2NCC2CC2)cc1)c1cc(-c2ccccc2)on1 (relative stereo) [Example 93]', 'IC50', '< 100 nM'),
  ('O=C(Nc1ccc([C@@H]2C[C@H]2NCC2CC2)cc1)c1cc(-c2ccccc2)[nH]n1 (relative stereo) [Example 126]', 'IC50', '< 100 nM'),
  ('COCC(C)N[C@@H]1C[C@H]1c1ccc(NC(=O)c2ccc(-c3ccccc3)cc2)cc1 (relative stereo) [Example 48]', 'IC50', '< 100 nM'),
  ('CC(=O)N1CCCc2ccc(C(=O)Nc3ccc([C@@H]4C[C@H]4NCC4CC4)cc3)cc2C1 (relative stereo) [Example 134]', 'IC50', '< 100 nM'),
  ('O=C(Nc1ccc([C@@H]2C[C@H]2NCC2CC2)cc1)c1ccc(C2CCCCC2)cc1 (relative stereo) [Example 89]', 'IC50', '100 nM'),
  ('Cc1ccc(C)c(C(=O)Nc2ccc([C@@H]3C[C@H]3NCC3CC3)cc2)c1 (relative stereo) [Example 106, hydrochloride]', 'IC50', '< 100 nM'),
  ('CS(=O)(=O)c1ccc(C(=O)Nc2ccc([C@@H]3C[C@H]3NCC3CC3)cc2)cc1 (relative stereo) [Example 87]', 'IC50', '< 100 nM'),
  ('O=C(Nc1ccc([C@@H]2C[C@H]2NCC2CC2)cc1)c1cc(-c2ccccc2)no1 (relative stereo) [Example 133]', 'IC50', '< 100 nM'),
  ('CN1CCC(N[C@@H]2C[C@H]2c2ccc(NC(=O)c3cccc(C(F)(F)F)c3)cc2)CC1 (relative stereo) [Example 76, dihydrochloride]', 'IC50', '< 100 nM'),
  ('O=C(Nc1ccc([C@@H]2C[C@H]2NCc2cn3ccsc3n2)cc1)c1cccc(C(F)(F)F)c1 (relative stereo) [Example 160, dihydrochloride]', 'IC50', '< 100 nM'),
  ('O=C(Nc1ccc([C@@H]2C[C@H]2NCC2CC2)cc1)c1ccccc1 (relative stereo) [Example 140, hydrochloride]', 'IC50', '< 100 nM'),
  ('O=C(Nc1ccc([C@@H]2C[C@H]2NC2CCC(F)(F)CC2)cc1)c1cccc(C(F)(F)F)c1 (relative stereo) [Example 154, hydrochloride]', 'IC50', '< 100 nM'),
  ('O=C(Nc1ccc([C@@H]2C[C@H]2NCC2CC2)cc1)c1ccc2[nH]ncc2c1 (relative stereo) [Example 99]', 'IC50', '< 100 nM'),
  ('O=C(Nc1ccc([C@@H]2C[C@H]2NCC2CC2)cc1)c1cccc(OC(F)(F)F)c1 (relative stereo) [Example 109, hydrochloride]', 'IC50', '< 100 nM');
